The measurements presented in this section are drawn from patent US20210122826A1.

Target: T1, Human Clec5A (human, UniProt Q9NY25 1-188)
T1 construct: also called hClec5A
T1 sequence: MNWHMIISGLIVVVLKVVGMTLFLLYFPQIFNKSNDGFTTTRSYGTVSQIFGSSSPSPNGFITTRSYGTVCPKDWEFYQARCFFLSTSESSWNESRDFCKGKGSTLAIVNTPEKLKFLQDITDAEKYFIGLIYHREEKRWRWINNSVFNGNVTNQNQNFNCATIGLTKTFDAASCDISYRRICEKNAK
Experiment: flow, Jurkat, 100 nM Ab
binders and their reported MFI normalized to WT
QUANTITY: MFI normalized to WT

>>> measurement("KW1.2.1 (antibody, V domains shown) VH: EVQLVESGGGLVQPGGSLRLSCAASGSTFSSYAMSWVRQAPGKGLEWVSTISGSGGSTYYADSVKGRFTISRDNSRNTLYLQMNSLRAEDTAVYYCARGGLIPSGFDYWGQGTLVTVSS VL: DIQMTQSPSSPSASVGDRVTITCRASQSISSYLNWYQQKPGKAPKLLIYAASSLLSGVPSRFSGSGSGTDFTLTISSLQPEDFATYYCQQTYSTPLTFGQGTKVEIK")
1.13
>>> measurement("KM12.2.3 (antibody, human IgG1, V domains shown) VH: EVQLVESGGGLVQPGGSLRLSCAASGFTFSSYAMSWIRQAPGKGLEWVSAISGSGGSIYYADSVKGRFTISRDNSKNTLYLQMNSLRAEDTAVYYCARGYSDSYFYGPYYTFDYWGQGTLVTVSS VL: DIQMTQSPSSLSASVGDRVTITCRASQGISSYLNWYQQKPGKAPKLLIYAASSLQSGVSSRFSGSGSGTDFTLTISSLQPEDFATYYCQQSYNTPLTFGQGTKVEIK")
1.41
>>> measurement("KW1.3.12 (antibody, human IgG1, V domains shown) VH: EVQLVESGGGLVQPGGSLRLSCAASGFTFSSYAMSWVRQAPGKGLEWVSTISGSGGSTYYADSVKGRFTISRDNSRNTLYLQMNSLRAEDTAVYYCARGGLIPSGFDYWGQGTLVTVSS VL: DIQMTQSPSSLSASVGDRVTITCRASQSISSYLNWYQQKPGKAPKLLIYAASSLLSGVPSRFSGSGSGTDFTLTISSLQPEDFATYYCQQTYSAPLTFGQGTKVEIK")
1.19
